Source of measurements: ChEMBL document CHEMBL4715750

# ASSAY_PROTOCOL: Cytotoxicity against human SH-SY5Y cells assessed as cell viability at 3.1 uM measured after 2 hrs by MTT assay relative to control
# Assay type: cell-based
# CONDITION_CONTEXT: read-out: Activity
Reported viability at 2 h, 3.1 µM is given for each of the following molecules.
I'd appreciate it if you included the unit after the number.

The cases that follow already have their viability at 2 h, 3.1 µM on record.
MOLECULE	viability at 2 h, 3.1 µM
COc1cc2c(cc1O)CCC(C)(CC(=O)N[C@@H](CCC(N)=O)C(=O)O)O2 (stereo partly specified)	100%
COc1cc2c(cc1O)CCC(C)(CCNC(C)=O)O2 (stereo unspecified)	82.3%
COc1cc2c(cc1O)CCC(C)(CC(=O)N[C@@H](C)C(=O)O)O2 (stereo partly specified)	79.5%
Cc1c(C)c2c(c(C)c1O)CCC(C)(C(=O)O)O2 (stereo unspecified)	97.6%

Query block: State its viability at 2 h, 3.1 µM: COc1cc2c(cc1O)CCC(C)(CCNC(=O)/C=C(C)/C=C/C=C(C)/C=C/C1=C(C)CCCC1(C)C)O2 (stereo unspecified)
Result block: 97.3%

Query block: State its viability at 2 h, 3.1 µM: COc1cc2c(cc1O)CCC(C)(CC(=O)N[C@H](C(=O)O)C(C)C)O2 (stereo partly specified)
Result block: 98%

Query block: State its viability at 2 h, 3.1 µM: COc1cc2c(cc1O)CCC(C)(CC(=O)N1CCC[C@H]1C(=O)O)O2 (stereo partly specified)
Result block: 100%

Query block: State its viability at 2 h, 3.1 µM: COc1cc2c(cc1O)CCC(C)(CC(=O)N[C@@H](Cc1ccccc1)C(=O)O)O2 (stereo partly specified)
Result block: 100%

Query block: State its viability at 2 h, 3.1 µM: COc1cc2c(cc1O)CCC(C)(CC(=O)N[C@@H](Cc1c[nH]c3ccccc13)C(=O)O)O2 (stereo partly specified)
Result block: 97.9%

Query block: State its viability at 2 h, 3.1 µM: COc1cc2c(cc1O)CCC(C)(CC(=O)NCCc1ccc(O)c(O)c1)O2 (stereo unspecified)
Result block: 100%

Query block: State its viability at 2 h, 3.1 µM: COc1cc2c(cc1O)CCC(C)(CCNC(=O)C[C@H]1OC(O)[C@H](O)[C@@H](O)[C@@H]1O)O2 (stereo partly specified)
Result block: 93.3%

Query block: State its viability at 2 h, 3.1 µM: COc1cc2c(cc1O)CCC(C)(CC(=O)N[C@@H](Cc1ccc(O)cc1)C(=O)O)O2 (stereo partly specified)
Result block: 100%

Query block: State its viability at 2 h, 3.1 µM: COc1cc2c(cc1O)CCC(C)(CC(N)=O)O2 (stereo unspecified)
Result block: 84.8%

Query block: State its viability at 2 h, 3.1 µM: COc1cc2c(cc1O)CCC(C)(CC(N)C(=O)O)O2 (stereo unspecified)
Result block: 100%

Query block: State its viability at 2 h, 3.1 µM: COc1cc2c(cc1O)CCC(C)(CC(=O)O)O2 (stereo unspecified)
Result block: 100%

Query block: State its viability at 2 h, 3.1 µM: `COc1cc2c(cc1O)CCC(C)(C)O2`
Result block: 85.6%

---

# ASSAY_PROTOCOL: Cytotoxicity against human SH-SY5Y cells assessed as cell viability at 0.8 uM measured after 24 hrs by MTT assay relative to control
# Type: cell-based
# CONDITION_CONTEXT: read-out: Activity
Hi! Could you tag entries with viability at 24 h, 0.8 µM below 90% as 1, and those at or above as 0? Much appreciated.

Use these answered entries as a reference point.
COMPOUND	LABEL
COc1cc2c(cc1O)CCC(C)(CC(=O)NCCc1ccc(O)c(O)c1)O2 (stereo not given)	0
COc1cc2c(cc1O)CCC(C)(CC(=O)N1CCC[C@H]1C(=O)O)O2 (stereo not given in full)	0
COc1cc2c(cc1O)CCC(C)(CC(=O)N[C@@H](C)C(=O)O)O2 (stereo not given in full)	0
COc1cc2c(cc1O)CCC(C)(CCNC(=O)C[C@H]1OC(O)[C@H](O)[C@@H](O)[C@@H]1O)O2 (stereo not given in full)	0
COc1cc2c(cc1O)CCC(C)(CC(=O)N[C@@H](CCC(N)=O)C(=O)O)O2 (stereo not given in full)	0

# input for lookup
Query block: Input COc1cc2c(cc1O)CCC(C)(CC(=O)N[C@@H](Cc1ccc(O)cc1)C(=O)O)O2 (stereo not given in full) ; condition: viability at 24 h, 0.8 µM strictly below 90%. Does it hold?
Result block: 1

---

# ASSAY_PROTOCOL: Cytotoxicity against human SH-SY5Y cells assessed as cell viability at 25 uM measured after 2 hrs by MTT assay relative to control
# Format: cell-based
# CONDITION_CONTEXT: read-out: Activity
REPORTED_ENDPOINT: viability at 2 h, 25 µM (%)
A number alone suffices; assume %.

COMPOUND	viability at 2 h, 25 µM (%)
COc1cc2c(cc1O)CCC(C)(CC(=O)N[C@@H](Cc1c[nH]c3ccccc13)C(=O)O)O2 (stereo partly specified)	100
COc1cc2c(cc1O)CCC(C)(CC(=O)N[C@H](C(=O)O)C(C)C)O2 (stereo partly specified)	96.6
Cc1c(C)c2c(c(C)c1O)CCC(C)(C(=O)O)O2 (stereo unspecified) [TROLOX]	99

Query block: State its viability at 2 h, 25 µM: COc1cc2c(cc1O)CCC(C)(CC(=O)O)O2 (stereo unspecified)
Result block: 100

Query block: State its viability at 2 h, 25 µM: COc1cc2c(cc1O)CCC(C)(CC(=O)N[C@@H](CCC(N)=O)C(=O)O)O2 (stereo partly specified)
Result block: 100

Query block: State its viability at 2 h, 25 µM: COc1cc2c(cc1O)CCC(C)(CCNC(C)=O)O2 (stereo unspecified)
Result block: 89.2

---

# ASSAY_PROTOCOL: Cytotoxicity against human SH-SY5Y cells assessed as cell viability at 0.8 uM measured after 24 hrs by MTT assay relative to control
# Type: cell-based
# CONDITION_CONTEXT: read-out: Activity
Hi! Could you tag entries with viability at 24 h, 0.8 µM below 90% as Condition met, and those at or above as Condition not met? Much appreciated.

Query block: Input COc1cc2c(cc1O)CCC(C)(CC(=O)N[C@H](C(=O)O)C(C)C)O2 (stereo partly specified) ; condition: viability at 24 h, 0.8 µM strictly below 90%. Does it hold?
Result block: Condition met

---

# ASSAY_PROTOCOL: Cytotoxicity against human SH-SY5Y cells assessed as cell viability at 25 uM measured after 24 hrs by MTT assay relative to control
# Type: cell-based
# CONDITION_CONTEXT: read-out: Activity
Reported viability at 24 h, 25 µM is given for each of the following compounds.
A number alone suffices; assume %.

COMPOUND	viability at 24 h, 25 µM [%]
COc1cc2c(cc1O)CCC(C)(CC(=O)O)O2 (stereo unspecified)	92.5
COc1cc2c(cc1O)CCC(C)(CC(=O)NCCc1ccc(O)c(O)c1)O2 (stereo unspecified)	79.1
COc1cc2c(cc1O)CCC(C)(CC(=O)N[C@H](C(=O)O)C(C)C)O2 (stereo partly specified)	76.1
COc1cc2c(cc1O)CCC(C)(C)O2	93.2
COc1cc2c(cc1O)CCC(C)(CC(=O)N[C@@H](Cc1ccccc1)C(=O)O)O2 (stereo partly specified)	81.1

Okay, now this compound:
Query block: State its viability at 24 h, 25 µM: COc1cc2c(cc1O)CCC(C)(CCNC(=O)C[C@H]1OC(O)[C@H](O)[C@@H](O)[C@@H]1O)O2 (stereo partly specified)
Result block: 87.9

---

# ASSAY_PROTOCOL: Cytotoxicity against human SH-SY5Y cells assessed as cell viability at 1.6 uM measured after 24 hrs by MTT assay relative to control
# Format: cell-based
# CONDITION_CONTEXT: read-out: Activity
Reported viability at 24 h, 1.6 µM is given for each of the following compounds.
I'd appreciate it if you included the unit after the number.

The cases that follow already have their viability at 24 h, 1.6 µM on record.
COMPOUND	REPORTED_VALUE
COc1cc2c(cc1O)CCC(C)(CC(=O)N[C@@H](Cc1ccccc1)C(=O)O)O2 (stereo not given in full)	100%
COc1cc2c(cc1O)CCC(C)(CC(=O)N[C@@H](Cc1ccc(O)cc1)C(=O)O)O2 (stereo not given in full)	89.5%
COc1cc2c(cc1O)CCC(C)(CCNC(=O)/C=C(C)/C=C/C=C(C)/C=C/C1=C(C)CCCC1(C)C)O2 (stereo not given)	99.1%
COc1cc2c(cc1O)CCC(C)(CC(N)C(=O)O)O2 (stereo not given)	100%

Query block: State its viability at 24 h, 1.6 µM: COc1cc2c(cc1O)CCC(C)(CCNC(=O)C[C@H]1OC(O)[C@H](O)[C@@H](O)[C@@H]1O)O2 (stereo not given in full)
Result block: 96.7%
